molecular target: mPDE10A7 (Mus musculus); experiment: mPDE10A7 enzyme inhibition (IMAP fluorescence polarization); assay type: biochemical; settings: fluorescein labeled cAMP or cGMP substrate
assay.endpoint: IC50 (nM)

1. COc1cc2nncc(-c3cnn(Cc4ccc(-c5ccccc5)cc4)c3)c2cc1OC
2. COc1cc2nncc(-c3ccc(NCCc4ccccn4)nc3)c2cc1OC
3. COc1cc2nncc(-c3ccc(OCc4ccc5ccccc5n4)cc3)c2cc1OC
4. COc1cc2nncc(-c3ccc(N4CCC(F)(F)CC4)nc3)c2cc1OC
5. COc1cc2nncc(-c3ccc(NC(C)C)nc3)c2cc1OC
### Prompt Order the records by IC50, with each subsequent value no larger than the one before. Response field: labels, in requested order.
### Response 1, 3, 4, 2, 5

* * *

Molecular target: UniProt:Q8CA95
Sequence (Q8CA95 446-763 limits assumed): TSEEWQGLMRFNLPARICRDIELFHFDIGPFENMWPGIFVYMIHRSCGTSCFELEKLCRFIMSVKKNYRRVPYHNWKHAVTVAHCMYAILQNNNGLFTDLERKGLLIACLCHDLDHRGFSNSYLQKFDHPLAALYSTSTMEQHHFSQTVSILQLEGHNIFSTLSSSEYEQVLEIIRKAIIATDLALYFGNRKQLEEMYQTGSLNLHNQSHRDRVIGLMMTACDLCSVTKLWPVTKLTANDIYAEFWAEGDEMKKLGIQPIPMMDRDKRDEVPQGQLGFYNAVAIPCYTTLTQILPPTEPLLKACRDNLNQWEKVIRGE
assay.endpoint: IC50 (nM)

a. CNC1CCN(c2ccc(-c3cnnc4cc(OC)c(OC)cc34)cn2)CC1
b. COc1cc2nncc(-c3cnn(Cc4ccccc4C#N)c3)c2cc1OC
c. COc1cc2nncc(N3CCc4cc(N5CCCCC5)ccc4C3=O)c2cc1OC
### Prompt Sort the items above by IC50, starting with the smallest value. Response field: labels, in requested order.
### Response b, c, a

Measured values drawn from patent US20070265256A1 for this set.
